- SYSTEM_NAME: E. coli RNA polymerase σ70 holoenzyme (Escherichia coli, UniProt P0A8T7+P0A8V2)
- Sequence (P0A8V2 whole entry): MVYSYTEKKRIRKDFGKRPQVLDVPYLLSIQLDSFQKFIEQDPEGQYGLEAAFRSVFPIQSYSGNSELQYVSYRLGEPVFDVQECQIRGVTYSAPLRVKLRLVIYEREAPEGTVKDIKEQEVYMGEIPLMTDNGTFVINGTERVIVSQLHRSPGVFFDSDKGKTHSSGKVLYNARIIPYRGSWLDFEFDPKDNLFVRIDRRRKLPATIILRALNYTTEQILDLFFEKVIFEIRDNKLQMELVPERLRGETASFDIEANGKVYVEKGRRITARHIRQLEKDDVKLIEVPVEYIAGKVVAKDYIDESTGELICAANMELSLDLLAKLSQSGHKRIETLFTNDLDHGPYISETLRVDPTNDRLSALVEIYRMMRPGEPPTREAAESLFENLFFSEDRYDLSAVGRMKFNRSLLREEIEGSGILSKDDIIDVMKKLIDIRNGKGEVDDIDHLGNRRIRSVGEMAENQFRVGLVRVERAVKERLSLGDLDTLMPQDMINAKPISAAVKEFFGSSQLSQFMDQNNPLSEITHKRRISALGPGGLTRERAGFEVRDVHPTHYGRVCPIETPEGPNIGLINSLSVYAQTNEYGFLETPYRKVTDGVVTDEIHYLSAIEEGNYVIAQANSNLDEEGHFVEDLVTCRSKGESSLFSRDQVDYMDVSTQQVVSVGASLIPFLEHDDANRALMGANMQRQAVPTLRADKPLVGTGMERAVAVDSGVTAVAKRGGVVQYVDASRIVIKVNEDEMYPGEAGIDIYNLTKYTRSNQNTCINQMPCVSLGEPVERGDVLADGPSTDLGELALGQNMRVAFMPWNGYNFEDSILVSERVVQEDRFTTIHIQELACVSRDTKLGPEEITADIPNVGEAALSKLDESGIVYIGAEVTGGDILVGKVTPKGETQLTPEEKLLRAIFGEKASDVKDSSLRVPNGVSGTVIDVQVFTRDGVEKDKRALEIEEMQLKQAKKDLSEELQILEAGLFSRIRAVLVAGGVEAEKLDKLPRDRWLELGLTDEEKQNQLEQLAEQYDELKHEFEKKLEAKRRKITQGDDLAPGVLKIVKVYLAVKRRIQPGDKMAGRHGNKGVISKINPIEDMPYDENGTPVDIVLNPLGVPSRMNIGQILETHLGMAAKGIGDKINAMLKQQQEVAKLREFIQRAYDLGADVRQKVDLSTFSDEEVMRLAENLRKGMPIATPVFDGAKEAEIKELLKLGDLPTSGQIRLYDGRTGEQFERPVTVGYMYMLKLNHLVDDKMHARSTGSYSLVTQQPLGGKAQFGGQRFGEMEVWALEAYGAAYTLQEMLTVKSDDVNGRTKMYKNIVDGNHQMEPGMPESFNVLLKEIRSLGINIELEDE
- Sequence (P0A8T7 whole entry): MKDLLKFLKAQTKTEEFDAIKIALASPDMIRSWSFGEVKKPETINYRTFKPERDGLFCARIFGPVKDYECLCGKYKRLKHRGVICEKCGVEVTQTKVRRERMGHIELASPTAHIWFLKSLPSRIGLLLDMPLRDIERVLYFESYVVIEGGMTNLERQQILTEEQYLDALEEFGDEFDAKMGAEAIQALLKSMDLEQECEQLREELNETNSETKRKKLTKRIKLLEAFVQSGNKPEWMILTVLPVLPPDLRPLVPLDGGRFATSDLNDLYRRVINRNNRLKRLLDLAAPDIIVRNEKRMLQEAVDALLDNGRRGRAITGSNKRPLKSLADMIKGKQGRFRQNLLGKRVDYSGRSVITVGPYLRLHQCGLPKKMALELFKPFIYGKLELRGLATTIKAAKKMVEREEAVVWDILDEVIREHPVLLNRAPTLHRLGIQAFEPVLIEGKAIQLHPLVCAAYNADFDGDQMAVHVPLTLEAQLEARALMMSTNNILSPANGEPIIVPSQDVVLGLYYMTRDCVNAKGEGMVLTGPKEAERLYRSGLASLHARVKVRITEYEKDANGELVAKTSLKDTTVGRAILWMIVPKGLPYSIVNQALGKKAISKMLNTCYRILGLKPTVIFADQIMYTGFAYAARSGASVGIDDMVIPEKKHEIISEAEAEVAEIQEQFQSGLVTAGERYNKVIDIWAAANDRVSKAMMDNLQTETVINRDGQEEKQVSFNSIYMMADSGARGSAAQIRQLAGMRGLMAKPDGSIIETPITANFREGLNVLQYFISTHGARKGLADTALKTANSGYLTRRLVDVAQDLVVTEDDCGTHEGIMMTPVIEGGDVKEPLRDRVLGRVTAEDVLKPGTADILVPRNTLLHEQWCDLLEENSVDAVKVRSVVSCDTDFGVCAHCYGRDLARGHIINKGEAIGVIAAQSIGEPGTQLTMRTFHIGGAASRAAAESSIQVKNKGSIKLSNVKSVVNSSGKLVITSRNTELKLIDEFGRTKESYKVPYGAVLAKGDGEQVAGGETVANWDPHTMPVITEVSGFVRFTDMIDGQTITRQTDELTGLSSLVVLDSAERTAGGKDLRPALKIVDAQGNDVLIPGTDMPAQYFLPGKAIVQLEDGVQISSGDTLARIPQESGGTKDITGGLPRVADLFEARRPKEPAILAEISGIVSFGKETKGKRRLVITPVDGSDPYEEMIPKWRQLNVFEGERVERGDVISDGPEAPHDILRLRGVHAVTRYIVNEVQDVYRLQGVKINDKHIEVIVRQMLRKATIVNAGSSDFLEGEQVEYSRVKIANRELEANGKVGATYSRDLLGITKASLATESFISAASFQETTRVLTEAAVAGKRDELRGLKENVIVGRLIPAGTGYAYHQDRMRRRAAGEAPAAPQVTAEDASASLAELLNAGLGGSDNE
- Sequence (P0A7Z4 whole entry partner): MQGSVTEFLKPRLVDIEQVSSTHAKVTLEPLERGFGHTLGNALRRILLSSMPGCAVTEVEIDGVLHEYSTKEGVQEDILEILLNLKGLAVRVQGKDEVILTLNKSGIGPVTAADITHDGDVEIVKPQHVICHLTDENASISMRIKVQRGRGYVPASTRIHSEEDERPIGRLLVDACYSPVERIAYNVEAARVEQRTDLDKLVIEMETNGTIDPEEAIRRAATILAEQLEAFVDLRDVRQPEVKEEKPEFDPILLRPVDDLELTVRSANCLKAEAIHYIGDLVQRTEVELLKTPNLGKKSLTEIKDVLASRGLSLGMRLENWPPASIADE
- Sequence (P0A800 2-91 partner limits assumed): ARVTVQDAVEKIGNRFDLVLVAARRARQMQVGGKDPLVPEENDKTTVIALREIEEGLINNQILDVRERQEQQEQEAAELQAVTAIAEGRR
- Sequence (P00579 whole entry partner): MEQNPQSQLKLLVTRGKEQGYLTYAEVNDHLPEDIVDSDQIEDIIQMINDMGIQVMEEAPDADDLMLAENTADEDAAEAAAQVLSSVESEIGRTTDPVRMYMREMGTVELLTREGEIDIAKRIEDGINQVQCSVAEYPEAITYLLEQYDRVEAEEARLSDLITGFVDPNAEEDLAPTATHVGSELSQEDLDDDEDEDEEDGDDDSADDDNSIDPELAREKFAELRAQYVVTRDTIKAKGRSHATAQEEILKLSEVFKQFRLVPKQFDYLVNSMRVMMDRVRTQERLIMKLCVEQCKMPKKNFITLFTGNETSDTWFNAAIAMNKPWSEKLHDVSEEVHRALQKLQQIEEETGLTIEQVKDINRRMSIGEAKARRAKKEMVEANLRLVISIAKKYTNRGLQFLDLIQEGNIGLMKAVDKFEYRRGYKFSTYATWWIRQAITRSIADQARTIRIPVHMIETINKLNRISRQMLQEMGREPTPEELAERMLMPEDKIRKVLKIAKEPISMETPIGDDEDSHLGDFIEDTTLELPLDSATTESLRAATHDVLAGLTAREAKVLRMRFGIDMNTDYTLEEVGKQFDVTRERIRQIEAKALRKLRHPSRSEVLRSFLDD
- EXPERIMENT_NOTES: Fluorescence-detected inhibition of bacterial RNA polymerase
- Assay type: biochemical
- ASSAY_CONDITIONS: 75 nM E. coli RNAP holoenzyme, RiboGreen fluorescence; read-out: in vitro RNAP-inhibitory activity E. coli RNAP IC50
We begin with a simple list: items and their reported pIC50.
In plain terms, pIC50 is the concentration in mol/L turned into minus its base-10 logarithm.

**Q:** May I ask what pIC50 has been recorded for CCCC/C(C)=C/C=C(\C)C(=O)c1c(O)cc(C(C)CC/C=C/NC(=O)OC)oc1=O (racemic) [Example 10, (±)Myxopyronin B, reference compound] ?
**A:** 7.89

**Q:** Lookup COC(=O)N/C=C/CCCc1cc(O)c(C(=O)/C(C)=C/c2sc(Oc3ccc(F)cc3)nc2C)c(=O)o1
**A:** 8.35

**Q:** Lookup [2H]C([2H])([2H])OC(=O)N/C=C/CCC(C)c1cc(O)c(C(=O)/C(C)=C/c2sc(Oc3ccc(F)cc3)nc2C)c(=O)o1 (centres unmarked)
**A:** 8.17

**Q:** Lookup [2H]C([2H])([2H])OC(=O)N/C=C/CCCc1cc(O)c(C(=O)/C(C)=C/c2cnc(Oc3ccc(F)c(F)c3)s2)c(=O)o1
**A:** 8.52

**Q:** Lookup [2H]C([2H])([2H])OC(=O)N/C=C/CCCc1cc(O)c(C(=O)/C(C)=C/c2cnc(Oc3ccc(F)c(-c4ccccc4)c3)s2)c(=O)o1
**A:** 8.92

====

- EXPERIMENT_NOTES: Metabolic stability, mouse liver microsomes
- Type: in vitro ADME
- ASSAY_CONDITIONS: CD-1 mouse liver microsomes 1 mg/ml, 1 mM NADPH, pH 7.4, 37° C.
- Protocol: Test compounds were incubated with mouse liver microsomes (CD-1; male and female pooled; 1 mg/ml) or human liver microsomes (male; 1 mg/ml) in 50 mM potassium phosphate, pH 7.4, and 1 mM NADPH at 37° C. Aliquots were removed at 0, 15, 30, 60, 90 and 120 min, and amounts of test compounds remaining were determined by LC-MS/MS. […]
PROPERTY_NAME: mouse liver microsome t0.5

**Q:** May I ask what mouse liver microsome t0.5 has been recorded for [2H]C([2H])([2H])OC(=O)N/C=C/CCC(C)c1cc(O)c(C(=O)/C(C)=C/c2cnc(Oc3ccc(F)cc3)s2)c(=O)o1 (stereo not drawn) ?
**A:** >120 min

**Q:** Lookup [2H]C([2H])([2H])OC(=O)N/C=C/CCCc1cc(O)c(C(=O)/C(C)=C/c2sc(Oc3ccc(F)cc3)nc2C)c(=O)o1
**A:** >120 min

**Q:** Lookup COC(=O)N/C=C/CCCc1cc(O)c(C(=O)/C(C)=C/c2cnc(Oc3ccc(F)cc3)s2)c(=O)o1
**A:** >120 min
